These measurements were taken from patent US10849893B2.

TEST_PROTOCOL: clinical
CONDITION_PARAMETERS: human, plasma, po, 225 mg/m2, t1/2, oral 225 mg/m^2 with Compound A; individual subjects
MEASUREMENT_KIND: half-life (h)
Answers are plain numbers, in h.

Q: Indicate its recorded half-life; the compound in question is CC(=O)O[C@@]12CO[C@@H]1C[C@H](O)[C@@]1(C)C(=O)[C@H](O)C3=C(C)[C@@H](OC(=O)[C@H](O)[C@@H](NC(=O)OC(C)(C)C)c4ccccc4)C[C@@](O)([C@@H](OC(=O)c4ccccc4)[C@H]21)C3(C)C
Result: 67.3

* * *

TEST_PROTOCOL: Study 1: oral docetaxel with Compound A vs IV docetaxel, pharmacokinetics in subjects with metastatic prostate cancer
CONDITION_PARAMETERS: male, human, in vivo, po, 75 mg/m2
MEASUREMENT_KIND: half-life
Just the number plus its unit, please.

Q: Indicate its recorded half-life; the compound in question is CC(=O)O[C@@]12CO[C@@H]1C[C@H](O)[C@@]1(C)C(=O)[C@H](O)C3=C(C)[C@@H](OC(=O)[C@H](O)[C@@H](NC(=O)OC(C)(C)C)c4ccccc4)C[C@@](O)([C@@H](OC(=O)c4ccccc4)[C@H]21)C3(C)C
Result: 21.3 h

* * *

TEST_PROTOCOL: clinical
CONDITION_PARAMETERS: human, plasma, po, 75 mg/m2, Cmax, oral 75 mg/m^2 with Compound A; Mean, N=3
MEASUREMENT_KIND: Cmax (ng/mL)
Numbers only, in ng/mL.

Q: Indicate its recorded Cmax; the compound in question is CC(=O)O[C@@]12CO[C@@H]1C[C@H](O)[C@@]1(C)C(=O)[C@H](O)C3=C(C)[C@@H](OC(=O)[C@H](O)[C@@H](NC(=O)OC(C)(C)C)c4ccccc4)C[C@@](O)([C@@H](OC(=O)c4ccccc4)[C@H]21)C3(C)C
Result: 172

* * *

TEST_PROTOCOL: clinical
CONDITION_PARAMETERS: human, plasma, po, 35 mg/m2, AUC0-24, oral 35 mg/m^2 with Compound A; Mean, N=4
MEASUREMENT_KIND: AUC(0-t)

Q: Indicate its recorded AUC(0-t); the molecule in question is CC(=O)O[C@@]12CO[C@@H]1C[C@H](O)[C@@]1(C)C(=O)[C@H](O)C3=C(C)[C@@H](OC(=O)[C@H](O)[C@@H](NC(=O)OC(C)(C)C)c4ccccc4)C[C@@](O)([C@@H](OC(=O)c4ccccc4)[C@H]21)C3(C)C
Result: 211 ng·h/mL

* * *

TEST_PROTOCOL: Study 1: oral docetaxel with Compound A vs IV docetaxel, pharmacokinetics in subjects with metastatic prostate cancer
CONDITION_PARAMETERS: male, human, in vivo, po, 75 mg/m2
MEASUREMENT_KIND: AUC(0-inf) (µg·h/mL)
Give bare numbers, in µg·h/mL.

Q: Indicate its recorded AUC(0-inf); the compound in question is CC(=O)O[C@@]12CO[C@@H]1C[C@H](O)[C@@]1(C)C(=O)[C@H](O)C3=C(C)[C@@H](OC(=O)[C@H](O)[C@@H](NC(=O)OC(C)(C)C)c4ccccc4)C[C@@](O)([C@@H](OC(=O)c4ccccc4)[C@H]21)C3(C)C
Result: 0.476
